Tested on: HOP-62 NSCLC
Test: NCI-60 one-dose screen, 48 h
Conditions: 10 µM unless noted
About 83,000 compounds went through this panel and 20% of them were active in at least one assay; those are over-represented in the sample as a whole. The source made the active and inactive calls. Rule for the calls: active = growth percent below 10; inactive = the rest.
Your reply should match one of these outcome classes. active, inactive

As a guide, the following entries are already answered.
{"compound": "O=C1/C(=C/c2ccc(Cl)cc2)COc2ccc(O)c(O)c21", "experimental-system": "HOP-62 NSCLC", "label-class": "active"}
{"compound": "C=C(C)[C@@H]1CC[C@]2(C(=O)N3CCN(C)CC3)CC[C@]3(C)[C@H](CC[C@@H]4[C@@]5(C)CC(=C/c6ccncc6)/C(=N/O)C(C)(C)[C@@H]5CC[C@]43C)[C@@H]12", "experimental-system": "HOP-62 NSCLC", "label-class": "inactive"}
{"compound": "Cc1nc2c(=O)[nH]c(SCC(=O)Nc3cccc(F)c3)nc2[nH]c1=O", "experimental-system": "HOP-62 NSCLC", "label-class": "inactive"}
{"compound": "CCCCNc1ccc(C#N)c(OCCN(CC)CC)c1", "experimental-system": "HOP-62 NSCLC", "label-class": "inactive"}
{"compound": "Nc1c(C(=O)Nc2ccccc2Cl)sc2nc3c(cc12)C(O)CCC3 (stereo not given)", "experimental-system": "HOP-62 NSCLC", "label-class": "inactive"}

Please indicate how the test categorized `Oc1c(Cl)cc(Cl)c2ccc(Cn3cc(-c4cc(C(F)(F)F)cc(C(F)(F)F)c4)nn3)nc12` .
inactive

Please indicate how the test categorized `O=C(c1ccc(-c2nc(CSc3nc4ccccc4s3)no2)cc1)N1CCSCC1` .
inactive

How was `COc1ccc2c(c1)[n+]([O-])c(C(=O)/C=C/C=C(\Cl)c1cc(OC)c(OC)c(OC)c1)c(C)[n+]2[O-]` classified in this test?
active

Per the records of this test, what outcome belongs to `C=CCc1c(O)c(C(=O)/C=C/c2ccc(Cl)cc2)c(OC)c2ccoc12` ?
inactive

Field: outcome | Entry: `C#COc1cccc(Nc2ncnc3ncc(NC(=O)CCl)cc23)c1`
active

Call for entry `COc1ccc(N2CCC(=O)NC2=S)cc1` :
inactive

###

growth for assorted compounds
Test system: MDA-MB-231 breast
Assay: NCI-60 one-dose screen, 48 h (100 = growth as untreated, 0 = no growth, -100 = all killed)
Conditions: 10 µM unless noted
This is part of a sample that, as a whole, favours compounds with a hit. Of some 83,000 tested, about 20% had one in any assay.
State just the number; it will be interpreted in %.

Dear colleague, I am looking for the recorded growth of the following compound: `O=C(NCCCN1CCOCC1)c1cccc(N2C(=O)/C(=C/c3ccc(F)cc3)SC2=S)c1`
88.9

Need growth of `Cc1ccccc1NC(=O)c1sc2nc(C)c(C(=O)/C=C/c3ccccc3)cc2c1N` , thanks.
3.85

Quick one: growth for `CCOC(=O)c1cc2c(=O)oc3ccccc3c2oc1=O` ?
101

I would be grateful if you could share the reported growth for `CCN(CC)c1ccc(/C=C/C(=O)c2ccc(Nc3nc(Nc4ccccc4)nc(Nc4ccccc4)n3)cc2)cc1` .
52.8

May I ask what growth has been recorded for `O=C1/C(=C/c2ccc(F)cc2)COc2ccc(O)cc21` ?
97.2

Requested field: growth. Item: `C#CCOc1cccc(Nc2ncnc3ccc(NC(=O)CCl)cc23)c1`
-37.8

Using the record for `O=[N+]([O-])c1ccc(S(=O)(=O)N2CCN(C3=NS(=O)(=O)c4ccccc4N3c3ccccc3)CC2)cc1` , report its growth.
99.2

So what does the record say about growth for `O=C(Nc1ncc(Cc2ccc(Cl)c(C(F)(F)F)c2)s1)c1ccc2nnsc2c1` ?
67.4

Entry `CC(=O)[C@@H]1CCC=C2CC[C@]3(C)[C@@H](CC[C@@H]4[C@@]5(C)CCCNC(C)(C)[C@@H]5CC[C@]43C)[C@H]21` : reported growth = ?
-76.5

I'd like to know its growth. The compound in question is `O=C1c2cc(Cl)ccc2S(=O)(=O)c2c(NCCCNCCO)nc3ccccc3c21`
-70.7

###

System: HT29 colon
Assay: NCI-60 one-dose screen, 48 h
Conditions: 10 µM unless noted
About 83,000 compounds went through this panel and 20% of them were active in at least one assay; those are over-represented in the sample as a whole. The source made the active and inactive calls. Rule for the calls: active = growth percent below 10; inactive = the rest.
Parameter call: string, one of YES = active, NO = inactive

Past entries and their recorded results:
{"compound": "CN1CCN(Cc2ccc(NC(=O)c3cncc(C#Cc4cnc(N)c5ccccc45)c3)cc2C(F)(F)F)CC1", "label-class": "YES"}
{"compound": "CCCCCCCCCCCCCCCC(N)c1ccccc1 (stereo not drawn)", "label-class": "YES"}
{"compound": "COc1ccc(-c2csc(N(C(=O)N3CCN(c4cc5c(cc4F)c(=O)c(C(=O)O)cn5C4CC4)CC3)c3ccccc3)n2)cc1", "label-class": "YES"}

Answer briefly: the call reported for `O=C(CCC(=O)N/N=C/c1ccccc1O)N/N=C/c1ccccc1O` in this assay.
NO

What outcome does the record of this test show for `COc1ccc(OC)c(-c2c(C#N)c(-c3cccs3)nc3c2c(-c2ccccc2)nn3-c2ccccc2)c1` ?
NO

Fill in: this test's call for `O=C(/C=C/c1cccs1)c1ccc(Cl)nc1` is ___
NO

Would you mind telling me which call this test gave `O=C1c2cccc3cccc(c23)C(=O)N1N1C(=O)c2cccc3c(N4CCOCC4)ccc(c23)C1=O` ?
NO

For this compound, state the assay outcome: `O=C1/C(=C/c2cccs2)SC(=S)N1CCCN1CCOCC1`
NO

What outcome does the record of this test show for `CCc1nc2c(=O)[nH]cnc2o1` ?
NO

Hi team, can someone confirm the assay call for `Cc1cccc(Cl)c1NC(=O)c1ccc2nc(NC(=O)NCCN(C)C)sc2c1` ?
NO

Test call, this compound: `COc1ccc2c(O)c(/C=C3\N=Nc4ccccc43)oc2c1C[C@@H]1CCNC[C@H]1F`
NO

I would be grateful if you could indicate the recorded call for `CCCc1cc(NC)nc(S(=O)(=O)CC)n1` .
NO

Short answer needed: outcome of this test for `C=C1C(=O)O[C@H]2[C@H]1CC/C(COC(=O)CCSCCC(=O)OC/C1=C/CC[C@@]3(C)O[C@H]3[C@H]3OC(=O)C(=C)[C@@H]3CC1)=C\CC[C@@]1(C)O[C@@H]21` ?
YES

For `N#Cc1nc(-c2ccccc2)oc1S(=O)(=O)N1CCOCC1` , which call appears in the assay record?
NO

Tell me the recorded outcome of this test for `CO/N=C(/C)c1ccc(NC(=O)CSc2nnc(-c3ccncc3)n2-c2ccccc2)cc1` .
NO

What outcome does the record of this test show for `O=C(CSc1nc(-c2ccccc2)[nH]c1S(=O)(=O)c1ccccc1)NC1CC1` ?
NO

Lab log entry: `CC(C)n1cnc2c(=S)nc[nH]c21` — outcome as called in the assay?
NO

What outcome does the record of this test show for `CN1C(=O)/C(=C/c2ccc(C(=O)Nc3ncc(Cc4ccc(Cl)cc4)s3)cc2)SC1=S` ?
NO

###

Test system: SK-MEL-2 melanoma
Experiment: NCI-60 one-dose screen, 48 h (100 = growth as untreated, 0 = no growth, -100 = all killed)
Settings: 10 µM unless noted
This is part of a sample that, as a whole, favours compounds with a hit. Of some 83,000 tested, about 20% had one in any assay.
reported-property: growth (%)
Express it in %; write the number only.

So what does the record say about growth for `C=C1C(=O)O[C@H]2[C@H]1CC/C(COC(=O)NCc1cc[nH]c1)=C\CC[C@@]1(C)O[C@@H]21` ?
70.5

I would be grateful if you could share the reported growth for CCO/C=N/C1=C(C#N)C(c2ccc(OC)cc2)c2sc3c(F)cccc3c2O1 (stereo not drawn) .
33.3

Please give the measured growth for this molecule: `CCc1nc2c(=O)[nH]cnc2o1`
113

# growth lookup, item `O=[N+]([O-])c1ccc(S(=O)(=O)N2CCN(C3=NS(=O)(=O)c4ccccc4N3c3ccccc3)CC2)cc1`
61.6

Reported growth, molecule `Clc1ccc(Sc2cnc(-c3ccccc3)o2)cc1` : ____
100

Using the record for `O=C(Nc1cccc([N+](=O)[O-])c1)c1cc2ccccc2cc1O` , report its growth.
1.68

Looking for the measured growth of `Cc1c(-n2nnc(-c3nc4ccccc4s3)c2N)c(=O)n(-c2ccccc2)n1C` , can you help?
107

I am curious: what growth value has been reported for `COC(=O)/C(CCC=C(C)C)=C1\[C@@H](OC(C)=O)C[C@@]2(C)[C@H]1C[C@@H](O)[C@H]1[C@@]3(C)CC[C@H](NCCN)[C@@H](C)[C@@H]3CC[C@@]12C` ?
92.6

Field request: growth | item: `CN(CCOc1ccc(C#N)cc1)CCOc1ccc(C#N)cc1`
66.9

Returns the measured growth for the input molecule. Input: `CCOC(=O)c1ccc2[nH]c(O)c(C(=Nc3ccc(N(C)C(=O)CN4CCN(C)CC4)cc3)c3ccccc3)c2c1`
-59.2
